Value source: the supplement of paper PMC8728848

molecular target: GlcNAc(b1-3)Fuc; experiment: glycan array binding signal (z-score within array); higher = stronger binding; settings: glycan notation: IUPAC condensed, linker removed
The sample as a whole holds a higher share of the strongest signals than the screen did.
Is glycan array binding signal (z-score) at least -0.3? Then true. If not, false.

Answered cases to consult:
INSERT INTO results (binder, classification) VALUES
  ('FGF1 (Homo sapiens), P05230 (protein) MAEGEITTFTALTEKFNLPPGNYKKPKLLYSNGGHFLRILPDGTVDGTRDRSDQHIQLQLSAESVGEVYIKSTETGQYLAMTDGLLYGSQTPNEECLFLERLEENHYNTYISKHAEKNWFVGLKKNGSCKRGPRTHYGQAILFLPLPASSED', 'true'),
  ('CGL (Crenomytilus grayanus), H2FH31 (protein) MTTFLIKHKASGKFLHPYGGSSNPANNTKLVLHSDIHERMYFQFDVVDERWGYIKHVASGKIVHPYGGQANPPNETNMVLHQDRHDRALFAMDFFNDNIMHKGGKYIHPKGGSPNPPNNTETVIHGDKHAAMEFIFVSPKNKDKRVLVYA', 'false'),
  ('HML-Native (Hypnea musciformis), P84871 (protein) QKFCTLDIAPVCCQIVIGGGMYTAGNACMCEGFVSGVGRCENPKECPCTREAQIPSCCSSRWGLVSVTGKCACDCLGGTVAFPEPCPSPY', 'true');

Textbook exercise: given the entry EULS2 M1 (Oryza sativa) (protein) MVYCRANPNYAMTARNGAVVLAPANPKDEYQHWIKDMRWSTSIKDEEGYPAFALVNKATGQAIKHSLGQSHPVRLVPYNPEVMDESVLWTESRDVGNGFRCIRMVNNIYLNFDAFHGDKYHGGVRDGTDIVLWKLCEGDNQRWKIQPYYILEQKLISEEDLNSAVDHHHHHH , state whether its glycan array binding signal (z-score) is greater than or equal to -0.3. false

Textbook exercise: given the entry LecRKVI.2 (protein) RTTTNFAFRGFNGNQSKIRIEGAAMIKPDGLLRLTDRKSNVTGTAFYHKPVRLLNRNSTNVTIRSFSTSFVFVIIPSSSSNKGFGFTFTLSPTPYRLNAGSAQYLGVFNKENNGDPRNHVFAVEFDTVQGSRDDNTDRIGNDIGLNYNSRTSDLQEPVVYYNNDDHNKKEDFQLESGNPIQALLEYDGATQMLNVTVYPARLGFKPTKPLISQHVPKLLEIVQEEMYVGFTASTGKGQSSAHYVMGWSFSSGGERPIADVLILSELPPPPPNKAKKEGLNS , state whether its glycan array binding signal (z-score) is greater than or equal to -0.3. true

Textbook exercise: given the entry Gal 1 (Mus musculus), P16045 (protein) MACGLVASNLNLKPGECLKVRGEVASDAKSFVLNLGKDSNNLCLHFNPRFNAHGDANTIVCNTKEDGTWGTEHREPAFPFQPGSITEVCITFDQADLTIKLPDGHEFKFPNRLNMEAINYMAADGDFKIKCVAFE , state whether its glycan array binding signal (z-score) is greater than or equal to -0.3. false
